Hey, just so you know, these numbers are from the supplement of paper PMC7214452.

Test system: SKMM2 (cancer type: MM)
Assay: normalized area under the dose-response curve (viability relative to DMSO control) (fraction); higher = less sensitive (more viable cells)
Settings: exposure time not given
Note to self: class labels come from recorded normalized area under the dose-response curve, ranges listed here: low bracket: < 0.7; middle bracket: ≥ 0.7 and < 0.9; high bracket: ≥ 0.9

Solved cases (2 shown):
COc1cc2nccc(Oc3ccc(NC(=O)C4(C(=O)Nc5ccc(F)cc5)CC4)cc3)c2cc1OC [Cabozantinib] | middle bracket
Cc1cc(Nc2ncc(Cl)c(Nc3ccccc3S(=O)(=O)C(C)C)n2)c(OC(C)C)cc1C1CCNCC1 | low bracket

Okay, next one:
Note: place this molecule into its band. Item: Cc1cccc(/C=N/Nc2cc(N3CCOCC3)n3nc(-c4ccncc4)cc3n2)c1
middle bracket
